Reference for the values: ChEMBL document CHEMBL1201862

Tested on: BT-549
Test: NCI tumour cell line growth inhibition, 48 h
Activity calls are given as the source filed them. Rule as the data show it: active = GI50 up to about 1.1 µM and inactive = higher.
REPORTED_PROPERTY: GI50

>>> value_observed("C[n+]1c2ccccc2n2c3ccccc3c(NCCCN3CCOCC3)c(C#N)c21")
"12 µM (inactive)"
>>> value_observed("CC[N+](C)(CC)CCN1C(=O)c2ccccc2S1(=O)=O")
"> 100 µM (inactive)"
>>> value_observed("N#Cc1c2c(c(Nc3cccc(C(F)(F)F)c3)n3c1nc1ccccc13)CCCC2")
"30.1 µM (inactive)"

Would you kindly share the measured GI50 for "COC(=O)C(CCCCN)NC(=O)C(CCCCN)NC(=O)C(CCCCN)NC(C)=O.Cc1ccc(C(=O)Nc2ccc(S(=O)(=O)O)c3cc(S(=O)(=O)O)cc(S(=O)(=O)O)c23)cc1NC(=O)c1cccc(NC(=O)Nc2cccc(C(=O)Nc3cc(C(=O)Nc4ccc(S(=O)(=O)O)c5cc(S(=O)(=O)O)cc(S(=O)(=O)O)c45)ccc3C)c2)c1" ?
> 50 µM (inactive)

Endpoint output: GI50 of "Cn1cc2c(=O)n3ncn(-c4ccc(Br)cc4)c3nc2n1" . Value?
> 100 µM (inactive)

Requested field: GI50. Item: "CC(=N\N=C\c1ccccn1)/C(C)=N/N=C/c1ccccn1"
> 100 µM (inactive)

Entry under review: CC1C(=O)N=C2C(=CN(Cc3ccccc3)c3ccccc32)C(=O)N1C (stereo not given) . Reported GI50?
> 100 µM (inactive)

Fill in the blank: the reported GI50 of "CN1C(=O)[C@H](c2c[nH]c3ccccc23)[C@H](c2c[nH]c3ccccc23)C1=O" is ____.
19.1 µM (inactive)
